Every entry's value here was drawn from paper PMC6402543.

- protocol.summary: Mouse pharmacokinetics
- Type: in vivo, Mouse (male, CD1)
- details: male, CD1, mouse, whole blood, iv, 1 mg/kg
readout.label: Vd (L/kg)
Please give a number only; it is taken to be in L/kg.

IN: Entry C[C@H]1CN(c2n[nH]c3nc(N[C@H]4CC[C@H](NS(=O)(=O)CCC(F)(F)F)CC4)ncc23)CCO1 [Compound 7] : reported Vd = ?
OUT: 4

###

- protocol.summary: Rat pharmacokinetics
- Assay type: in vivo, Rat (male, SD)
- details: male, Sprague Dawley, whole blood, iv, 1 mg/kg
readout.label: half-life
Please state the value followed by its unit.

IN: Entry C[C@H]1CN(c2n[nH]c3nc(N[C@H]4CC[C@H](NS(=O)(=O)CCC(F)(F)F)CC4)ncc23)CCO1 : reported half-life = ?
OUT: 24 min

###

- protocol.summary: Rat pharmacokinetics
- Format: in vivo, Rat (male, SD)
- details: male, Sprague Dawley, whole blood, po, 10 mg/kg
readout.label: Tmax (h)
Please give a number only; it is taken to be in h.

IN: Entry C[C@H]1CN(c2n[nH]c3nc(N[C@H]4CC[C@H](NS(=O)(=O)CCC(F)(F)F)CC4)ncc23)CCO1 [Compound 7] : reported Tmax = ?
OUT: 2

###

- protocol.summary: Rat pharmacokinetics
- Assay type: in vivo, Rat (male, SD)
- details: male, Sprague Dawley, whole blood, po, 300 mg/kg
readout.label: Tmax (h)
Please give a number only; it is taken to be in h.

IN: Entry C[C@H]1CN(c2n[nH]c3nc(N[C@H]4CC[C@H](NS(=O)(=O)CCC(F)(F)F)CC4)ncc23)CCO1 [Compound 7] : reported Tmax = ?
OUT: 7.3

###

- protocol.summary: Mouse pharmacokinetics
- Assay type: in vivo, Mouse (male, CD1)
- details: male, CD1, mouse, whole blood, iv, 1 mg/kg
readout.label: half-life (min)
Please give a number only; it is taken to be in min.

IN: Entry C[C@H]1CN(c2n[nH]c3nc(N[C@H]4CC[C@H](NS(=O)(=O)CCC(F)(F)F)CC4)ncc23)CCO1 : reported half-life = ?
OUT: 18

###

- protocol.summary: Mouse pharmacokinetics
- Assay type: in vivo, Mouse (male, CD1)
- details: male, CD1, mouse, whole blood, po, 10 mg/kg
readout.label: AUC(0-inf)

IN: Entry C[C@H]1CN(c2n[nH]c3nc(N[C@H]4CC[C@H](NS(=O)(=O)CCC(F)(F)F)CC4)ncc23)CCO1 : reported AUC(0-inf) = ?
OUT: 1460 ng·h/mL
